Experiment: A CellTox Green Cytotoxicity Assay to monitor cytotoxicity in HepG2 cells - 32 hour (AID 1224883); note: nearly all actives have a fitted effect of over 50% in size
Details: CellTox Green fluorescence; series mostly up to 76.8 µM
Records with an inconclusive call do not appear. Activity calls are given as the source filed them. Calls come from the whole dose curve; as a rule, active = well fitted activation curve with a large enough effect in the repeat runs; inconclusive = weak or mixed curves; inactive = flat fitted curve, though single readings scatter.
Possible outcomes: active, inactive

[[record]]
molecule = "C#C[C@]1(O)C=C[C@H]2[C@@H]3CCC4=CC(=O)CC[C@@H]4[C@H]3CC[C@@]21CC"
classification = "inactive"

[[record]]
molecule = "CC1CCCCC1NC(=O)Nc1ccccc1 (centres undefined)"
classification = "inactive"

[[record]]
molecule = "c1cc[c]([Hg][c]2ccccc2)cc1"
classification = "active"

[[record]]
molecule = "OCCBr"
classification = "inactive"

[[record]]
molecule = "CC(C1CC1)C(O)(Cn1cncn1)c1ccc(Cl)cc1 (centres undefined)"
classification = "inactive"

[[record]]
molecule = "C[N+](C)=CCl"
classification = "inactive"

[[record]]
molecule = "CNC(=O)Oc1ccccc1C1OCCO1"
classification = "inactive"

[[record]]
molecule = "C#CCN1C(=O)COc2cc(F)c(N3C(=O)C4=C(CCCC4)C3=O)cc21"
classification = "inactive"

[[record]]
molecule = "CC(C)CP(=S)(S)CC(C)C"
classification = "inactive"

